# Tested on: MAP4K2
# assayRemarks: Kinobeads competition binding: MAP4K2
# Set-up: species or system human
# protocolConditions: target MAP4K2
Assignment: determine reported CATDS for the given molecules.
One number for each entry.

Take a look at these entries with their results.
{"smilesText": "Nc1ncnc2[nH]c(-c3ccccc3)nc12", "endpoint": "CATDS", "testResult": 0}
{"smilesText": "N#CC1(c2ccc(NC(=O)c3cccnc3NCc3ccncc3)cc2)CCCC1", "endpoint": "CATDS", "testResult": 0}
{"smilesText": "CCc1cc2c(cc1N1CCC(N3CCOCC3)CC1)C(C)(C)c1[nH]c3cc(C#N)ccc3c1C2=O", "endpoint": "CATDS", "testResult": 0}

Could you now consider this next molecule?
Value wanted: CATDS (MAP4K2) of entry CCN1CCN(Cc2ccc(Nc3ncc(F)c(-c4cc(F)c5nc(C)n(C(C)C)c5c4)n3)nc2)CC1 0

====

# assayedTarget: endogenous kinases and other proteins enriched by Kinobeads from mixed cancer cell lysates (Homo sapiens)
# Construct: to maximize the representation of endogenous proteins; endogenous in cells
# assayRemarks: Kinobeads pulldown, full dose-response (eight doses)
# protocolConditions: target AAK1
endpoint: EC50

Which EC50 value belongs to Cn1cc(-c2nc(N[C@@H]3CCCC[C@@H]3N)c(F)c3c2C(=O)NC3)cn1 ? 997 nM

====

So I've got a bunch of compounds here, and I need their CATDS values.
# assayedTarget: GSK3B (Homo sapiens)
# Construct: endogenous in cells
# Sequence (P49841 whole entry): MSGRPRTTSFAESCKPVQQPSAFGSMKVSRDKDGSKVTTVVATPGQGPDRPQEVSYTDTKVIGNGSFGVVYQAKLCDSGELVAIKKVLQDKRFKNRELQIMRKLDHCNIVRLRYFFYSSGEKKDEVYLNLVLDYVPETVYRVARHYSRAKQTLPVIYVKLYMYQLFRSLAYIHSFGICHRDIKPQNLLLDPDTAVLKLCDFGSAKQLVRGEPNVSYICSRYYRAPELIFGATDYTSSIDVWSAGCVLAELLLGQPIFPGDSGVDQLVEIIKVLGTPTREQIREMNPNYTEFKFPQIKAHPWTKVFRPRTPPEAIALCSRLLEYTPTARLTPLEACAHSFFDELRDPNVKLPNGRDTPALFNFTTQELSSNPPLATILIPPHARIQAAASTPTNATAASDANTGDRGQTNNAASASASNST
# assayRemarks: Kinobeads two-dose competition binding: GSK3B
# protocolConditions: target GSK3B
Give bare numbers.

Would you please look over these solved cases?
{"compound": "N#CC1(c2ccc(NC(=O)c3cccnc3NCc3ccncc3)cc2)CCCC1 [Apatinib]", "CATDS": 0}
{"compound": "CN(C)C/C=C/C(=O)Nc1cc2c(Nc3ccc(F)c(Cl)c3)ncnc2cc1O[C@H]1CCOC1 [Afatinib]", "CATDS": 0}
{"compound": "Nc1ncnc2[nH]c(-c3ccccc3)nc12 [AH5015_KCGS]", "CATDS": 0.07826}

The record that follows has no CATDS shown yet.
Report CATDS for CCc1cc2c(cc1N1CCC(N3CCOCC3)CC1)C(C)(C)c1[nH]c3cc(C#N)ccc3c1C2=O [Alectinib] please. 0

====

# assayedTarget: PRKCQ (Homo sapiens, UniProt Q04759)
# Construct: to maximize the representation of endogenous proteins; endogenous in cells
# Sequence (Q04759 whole entry): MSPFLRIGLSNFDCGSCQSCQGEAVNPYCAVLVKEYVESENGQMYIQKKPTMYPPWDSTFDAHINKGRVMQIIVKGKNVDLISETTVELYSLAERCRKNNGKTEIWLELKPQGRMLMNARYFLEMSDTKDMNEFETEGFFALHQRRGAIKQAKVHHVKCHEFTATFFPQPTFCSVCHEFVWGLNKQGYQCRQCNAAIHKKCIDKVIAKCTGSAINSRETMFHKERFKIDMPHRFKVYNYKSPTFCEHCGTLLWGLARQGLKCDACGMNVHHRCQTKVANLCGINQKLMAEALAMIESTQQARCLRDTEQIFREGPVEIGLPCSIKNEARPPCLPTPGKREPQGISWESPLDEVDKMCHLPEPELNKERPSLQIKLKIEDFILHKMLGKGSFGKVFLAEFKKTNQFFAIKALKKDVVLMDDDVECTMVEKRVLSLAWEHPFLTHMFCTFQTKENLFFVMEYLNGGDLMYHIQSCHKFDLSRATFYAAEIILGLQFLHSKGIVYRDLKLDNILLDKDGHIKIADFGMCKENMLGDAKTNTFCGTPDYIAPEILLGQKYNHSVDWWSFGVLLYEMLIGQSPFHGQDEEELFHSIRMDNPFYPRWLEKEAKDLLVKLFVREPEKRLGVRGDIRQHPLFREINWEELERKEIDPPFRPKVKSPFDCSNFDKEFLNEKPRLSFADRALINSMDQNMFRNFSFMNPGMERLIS
# assayRemarks: Kinobeads full dose-response competition binding: PRKCQ
# protocolConditions: Gene Name PRKCQ; eight-dose curve fit, doses in nM
endpoint: EC50 (nM)
Answers are plain numbers, in nM.

I would be grateful if you could share the reported EC50 for CCn1c(-c2nonc2N)nc2c(C#CC(C)(C)O)nc(OCCN)cc21 [GSK902056A] . 58.7

====

# assayedTarget: MAPK14 (Homo sapiens)
# Construct: endogenous in cells
# assayRemarks: Kinobeads full dose-response competition binding: MAPK14
# protocolConditions: Gene Name MAPK14; eight-dose curve fit, doses in nM
endpoint: EC50 (nM)
Give bare numbers, in nM.

Quick one: EC50 for NCc1ccc(-c2nc(-c3ccncc3)c(-c3ccc(Cl)c(O)c3)[nH]2)cc1 ? 174

====

# assayedTarget: EPHB2 (Homo sapiens, UniProt P29323)
# Construct: endogenous in cells
# Sequence (P29323 19-1055): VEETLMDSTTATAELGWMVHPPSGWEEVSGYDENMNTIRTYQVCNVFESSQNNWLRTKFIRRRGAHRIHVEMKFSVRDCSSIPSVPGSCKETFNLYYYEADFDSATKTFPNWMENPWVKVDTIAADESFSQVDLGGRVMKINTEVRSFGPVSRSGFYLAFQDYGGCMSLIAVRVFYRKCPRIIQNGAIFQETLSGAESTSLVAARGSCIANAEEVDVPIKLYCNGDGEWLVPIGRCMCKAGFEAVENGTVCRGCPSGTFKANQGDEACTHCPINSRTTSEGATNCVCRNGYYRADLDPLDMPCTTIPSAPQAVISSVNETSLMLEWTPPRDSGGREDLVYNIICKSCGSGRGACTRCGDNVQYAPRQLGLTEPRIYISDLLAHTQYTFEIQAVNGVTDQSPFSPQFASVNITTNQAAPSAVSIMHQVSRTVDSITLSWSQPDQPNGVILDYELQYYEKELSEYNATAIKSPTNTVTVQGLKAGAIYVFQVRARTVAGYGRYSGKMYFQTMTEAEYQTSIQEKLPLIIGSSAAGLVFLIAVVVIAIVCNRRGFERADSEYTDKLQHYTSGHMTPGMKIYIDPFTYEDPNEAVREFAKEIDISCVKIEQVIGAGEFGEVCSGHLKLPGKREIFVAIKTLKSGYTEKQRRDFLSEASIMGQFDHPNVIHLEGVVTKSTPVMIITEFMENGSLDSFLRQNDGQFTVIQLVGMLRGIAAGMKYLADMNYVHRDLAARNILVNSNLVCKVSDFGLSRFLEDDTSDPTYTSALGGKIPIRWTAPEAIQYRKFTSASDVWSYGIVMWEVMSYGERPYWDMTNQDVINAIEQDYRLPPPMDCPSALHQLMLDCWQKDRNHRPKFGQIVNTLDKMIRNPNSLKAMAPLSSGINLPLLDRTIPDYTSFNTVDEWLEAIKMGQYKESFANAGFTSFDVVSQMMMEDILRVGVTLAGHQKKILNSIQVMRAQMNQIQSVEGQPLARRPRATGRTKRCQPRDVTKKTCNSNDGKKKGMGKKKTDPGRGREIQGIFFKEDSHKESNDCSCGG
# assayRemarks: Kinobeads competition binding: EPHB2;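 also: target engagement share of this target among all targets at its Kdapp concentration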
# protocolConditions: target EPHB2
endpoint: CATDS
Give bare numbers.

# per-item lookup of CATDS; items listed below
1. CCN1CCN(Cc2ccc(Nc3ncc(F)c(-c4cc(F)c5nc(C)n(C(C)C)c5c4)n3)nc2)CC1
2. Nc1ncnc2[nH]c(-c3ccccc3)nc12

1. 0
2. 0.02863

====

# assayedTarget: endogenous kinases and other proteins enriched by Kinobeads from mixed cancer cell lysates (Homo sapiens)
# Construct: endogenous in cells
# assayRemarks: Kinobeads pulldown, full dose-response (eight doses)
# protocolConditions: target FLT4
endpoint: pEC50
Give bare numbers, as −log10 of the molar value.

Give its pEC50 value. Item: Cn1cc(-c2nc(N[C@@H]3CCCC[C@@H]3N)c(F)c3c2C(=O)NC3)cn1 6.25

====

Provide the reported CATDS of each item.
# assayedTarget: ACAD11 (Homo sapiens, UniProt Q709F0)
# Construct: endogenous in cells
# assayRemarks: Kinobeads two-dose competition binding: ACAD11
# protocolConditions: sheet CATDS matrix 2; Gene Name ACAD11
Numbers only.

{"molecule": "COc1cc(Nc2nccc(N3CCC(NC(=O)Nc4cccc(C(C)=O)c4)C3)n2)cc(OC)c1OC (stereo not shown) [GSK1379753A]", "endpoint": "CATDS", "testResult": 0}
{"molecule": "CC(C)c1nc(-c2ccc(F)c(NS(=O)(=O)c3c(F)cccc3F)c2)c(-c2ccnc(Nc3ccc(N4CCOCC4)nc3)n2)s1 [GSK1804250A]", "endpoint": "CATDS", "testResult": 0}

Provide each entry's CATDS from the list below.
1. Fc1ccc(-c2nc3n(c2-c2ccncc2)CCS3)cc1 [GI98581X]
2. Nc1ncnc2[nH]c(-c3ccccc3)nc12

1. 0
2. 0

====

# assayedTarget: PRKCB (Homo sapiens, UniProt P05771)
# Construct: endogenous in cells
# assayRemarks: Kinobeads full dose-response competition binding: PRKCB
# protocolConditions: Gene Name PRKCB; eight-dose curve fit, doses in nM
endpoint: EC50 (nM)
Answers are plain numbers, in nM.

Test system PRKCB (Homo sapiens, UniProt P05771); read-out EC50; what value for CCn1c(-c2nonc2N)nc2c(C#CC(C)(C)O)nc(OCCN)cc21 [GSK902056A] ? 410

====

# assayedTarget: CSNK2A1 (Homo sapiens, UniProt P68400)
# Construct: full-length PKN3, CSNK2A1 or CSNK2A2 ORF; host or cells: HEK293T
# Sequence (P68400 whole entry): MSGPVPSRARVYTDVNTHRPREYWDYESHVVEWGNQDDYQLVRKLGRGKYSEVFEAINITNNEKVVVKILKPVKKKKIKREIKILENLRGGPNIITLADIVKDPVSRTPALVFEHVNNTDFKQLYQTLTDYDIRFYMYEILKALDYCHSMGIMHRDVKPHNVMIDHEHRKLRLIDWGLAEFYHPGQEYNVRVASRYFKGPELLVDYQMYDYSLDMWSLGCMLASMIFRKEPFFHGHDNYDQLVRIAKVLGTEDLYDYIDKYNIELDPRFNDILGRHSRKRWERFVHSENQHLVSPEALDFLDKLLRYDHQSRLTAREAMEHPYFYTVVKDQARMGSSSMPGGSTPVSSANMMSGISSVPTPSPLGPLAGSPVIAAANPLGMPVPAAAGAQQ
# assayRemarks: NanoBRET in-cell target engagement in HEK293T cells: CSNK2A1
# Type: cell-based
# protocolConditions: CSNK2A1; replicate 2; read-out: NanoBRET Rep2
endpoint: pIC50
Give bare numbers, as −log10 of the molar value.

Value lookup for pIC50; key = COc1cc(Nc2ncc3c(C)nc(-c4cc5ccccc5[nH]4)n3n2)cc(OC)c1OC [GW869516X] 6.38

====

So I've got a bunch of compounds here, and I need their potency estimated from few doses values.
# assayedTarget: ABL2 (Homo sapiens)
# Construct: endogenous in cells
# Sequence (P42684 whole entry): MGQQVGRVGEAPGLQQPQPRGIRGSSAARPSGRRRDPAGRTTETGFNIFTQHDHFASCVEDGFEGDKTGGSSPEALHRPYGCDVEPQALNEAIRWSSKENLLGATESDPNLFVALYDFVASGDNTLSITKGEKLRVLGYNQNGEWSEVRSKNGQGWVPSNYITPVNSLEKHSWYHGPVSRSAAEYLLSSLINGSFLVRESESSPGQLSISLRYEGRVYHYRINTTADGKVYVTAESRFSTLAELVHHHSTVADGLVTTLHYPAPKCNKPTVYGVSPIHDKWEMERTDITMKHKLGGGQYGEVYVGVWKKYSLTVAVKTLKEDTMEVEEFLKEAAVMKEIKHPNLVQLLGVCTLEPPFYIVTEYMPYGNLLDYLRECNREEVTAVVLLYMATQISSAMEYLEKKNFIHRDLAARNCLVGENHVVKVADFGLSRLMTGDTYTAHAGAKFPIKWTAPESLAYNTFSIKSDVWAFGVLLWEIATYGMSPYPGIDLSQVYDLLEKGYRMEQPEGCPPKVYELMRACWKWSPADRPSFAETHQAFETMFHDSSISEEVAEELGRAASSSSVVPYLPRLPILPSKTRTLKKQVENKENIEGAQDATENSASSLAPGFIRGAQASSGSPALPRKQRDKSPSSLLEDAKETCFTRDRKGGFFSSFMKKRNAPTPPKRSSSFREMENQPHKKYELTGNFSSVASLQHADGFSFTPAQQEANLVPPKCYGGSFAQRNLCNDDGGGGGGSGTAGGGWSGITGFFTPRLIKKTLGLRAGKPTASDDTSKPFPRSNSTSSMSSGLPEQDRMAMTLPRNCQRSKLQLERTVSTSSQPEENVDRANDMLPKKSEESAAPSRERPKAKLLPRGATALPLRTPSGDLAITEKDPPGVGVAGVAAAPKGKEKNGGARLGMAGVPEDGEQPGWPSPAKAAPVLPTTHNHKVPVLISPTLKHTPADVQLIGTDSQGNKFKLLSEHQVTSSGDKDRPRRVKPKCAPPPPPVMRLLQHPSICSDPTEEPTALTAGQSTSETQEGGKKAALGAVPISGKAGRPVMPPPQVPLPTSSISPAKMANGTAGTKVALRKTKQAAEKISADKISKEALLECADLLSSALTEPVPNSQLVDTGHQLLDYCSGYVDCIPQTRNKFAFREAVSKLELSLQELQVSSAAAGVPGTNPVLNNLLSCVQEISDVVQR
# assayRemarks: Kinobeads two-dose competition binding: ABL2
# protocolConditions: sheet "Kinobeads Drugmatrix - all"; unit inferred; read-out: Kinobeads Drugmatrix - all: apparent Kd, ABL2
One number for each entry, in nM.

Give one value of potency estimated from few doses per listed compound.
1. CC(C)c1nc(-c2cccc(NS(=O)(=O)c3ccccc3)c2)c(-c2ccnc(Nc3ccc4c(c3)CN(C)CC4)n2)s1 [GSK1649598A]
2. CC(C)c1nc(-c2ccc(F)c(NS(=O)(=O)c3c(F)cccc3F)c2)c(-c2ccnc(Nc3ccc(N4CCOCC4)nc3)n2)s1 [GSK1804250A]
3. CC(=O)N1CCN(c2ccc(Nc3nccc(-c4sc(C(C)C)nc4-c4cccc(NS(=O)(=O)c5ccccc5)c4)n3)cn2)CC1 [GSK1645872A]

[93.8, 126, 166]

====

# assayedTarget: endogenous kinases and other proteins enriched by Kinobeads from mixed cancer cell lysates (Homo sapiens, UniProt Q15831)
# Construct: endogenous in cells
# Sequence (Q15831 whole entry): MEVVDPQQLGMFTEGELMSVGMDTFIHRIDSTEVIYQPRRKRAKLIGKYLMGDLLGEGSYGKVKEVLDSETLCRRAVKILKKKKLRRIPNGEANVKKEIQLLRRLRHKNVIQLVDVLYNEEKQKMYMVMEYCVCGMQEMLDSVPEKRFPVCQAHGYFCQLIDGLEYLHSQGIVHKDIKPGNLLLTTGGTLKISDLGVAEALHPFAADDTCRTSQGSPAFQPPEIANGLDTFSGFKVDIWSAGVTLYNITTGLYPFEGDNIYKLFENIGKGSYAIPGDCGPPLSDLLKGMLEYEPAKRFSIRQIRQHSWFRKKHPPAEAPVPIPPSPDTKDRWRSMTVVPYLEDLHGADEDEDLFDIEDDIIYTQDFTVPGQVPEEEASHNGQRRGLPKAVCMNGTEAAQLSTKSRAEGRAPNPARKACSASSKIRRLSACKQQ
# assayRemarks: Kinobeads pulldown, full dose-response (eight doses)
# protocolConditions: target STK11; read-out: apparent Kd
endpoint: pKd
One number for each entry, as −log10 of the molar value.

Param item = Cn1cc(-c2nc(N[C@@H]3CCCC[C@@H]3N)c(F)c3c2C(=O)NC3)cn1 ; retrieve measured pKd. 5.94

====

# assayedTarget: CAMK2B (Homo sapiens, UniProt Q13554)
# Construct: endogenous in cells
# Sequence (Q13554 whole entry): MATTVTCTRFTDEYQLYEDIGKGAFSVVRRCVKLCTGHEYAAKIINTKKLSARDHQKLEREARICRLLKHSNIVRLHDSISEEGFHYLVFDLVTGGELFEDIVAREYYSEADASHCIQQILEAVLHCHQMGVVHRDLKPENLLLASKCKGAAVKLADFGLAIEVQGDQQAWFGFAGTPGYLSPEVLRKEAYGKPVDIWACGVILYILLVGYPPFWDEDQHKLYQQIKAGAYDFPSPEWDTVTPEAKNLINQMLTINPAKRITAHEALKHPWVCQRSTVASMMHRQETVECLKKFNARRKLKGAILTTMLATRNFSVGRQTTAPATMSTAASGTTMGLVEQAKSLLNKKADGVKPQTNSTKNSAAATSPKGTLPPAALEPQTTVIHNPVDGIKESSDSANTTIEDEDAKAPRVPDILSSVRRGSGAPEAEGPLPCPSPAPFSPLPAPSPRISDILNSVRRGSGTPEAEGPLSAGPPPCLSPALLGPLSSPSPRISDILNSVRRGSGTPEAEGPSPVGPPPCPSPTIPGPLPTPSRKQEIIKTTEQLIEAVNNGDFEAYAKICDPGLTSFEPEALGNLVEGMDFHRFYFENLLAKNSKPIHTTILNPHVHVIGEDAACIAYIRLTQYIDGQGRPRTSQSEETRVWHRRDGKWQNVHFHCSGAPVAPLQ
# assayRemarks: Kinobeads competition binding: CAMK2B
# protocolConditions: target CAMK2B
Please go through the items and note down their CATDS.
Answers are plain numbers.

{"compound": "CN(C)C/C=C/C(=O)Nc1cc2c(Nc3ccc(F)c(Cl)c3)ncnc2cc1O[C@H]1CCOC1 [Afatinib]", "assayedTarget": "CAMK2B (Homo sapiens, UniProt Q13554)", "CATDS": 0}

State recorded CATDS for all listed compounds.
1. Nc1ncnc2[nH]c(-c3ccccc3)nc12 [AH5015_KCGS]
2. CCN1CCN(Cc2ccc(Nc3ncc(F)c(-c4cc(F)c5nc(C)n(C(C)C)c5c4)n3)nc2)CC1 [Abemaciclib]
3. CCc1cc2c(cc1N1CCC(N3CCOCC3)CC1)C(C)(C)c1[nH]c3cc(C#N)ccc3c1C2=O [Alectinib]
4. N#CC1(c2ccc(NC(=O)c3cccnc3NCc3ccncc3)cc2)CCCC1 [Apatinib]

[0, 0.1515, 0, 0]

====

# assayedTarget: endogenous kinases and other proteins enriched by Kinobeads from mixed cancer cell lysates (Homo sapiens, UniProt Q9H2G2)
# Construct: endogenous in cells
# assayRemarks: Kinobeads pulldown, full dose-response (eight doses);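 also: competition with Kinobeads ε after inhibitor preincubation in lysate (5 mg/ml protein) for 45 min at 4 °C, DMSO control, doses 0.3–1,000 nM, label-free LC–MS/MS quantification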
# protocolConditions: target SLK; read-out: apparent Kd
endpoint: Kd (nM)
Numbers only, in nM.

// Kd lookup, key: Cn1cc(-c2nc(N[C@@H]3CCCC[C@@H]3N)c(F)c3c2C(=O)NC3)cn1 516
